Target: IKKε (Homo sapiens, UniProt Q14164)
Construct: His-tag; made in house; host or cells: Sf9 insect cells
Sequence (Q14164 whole entry): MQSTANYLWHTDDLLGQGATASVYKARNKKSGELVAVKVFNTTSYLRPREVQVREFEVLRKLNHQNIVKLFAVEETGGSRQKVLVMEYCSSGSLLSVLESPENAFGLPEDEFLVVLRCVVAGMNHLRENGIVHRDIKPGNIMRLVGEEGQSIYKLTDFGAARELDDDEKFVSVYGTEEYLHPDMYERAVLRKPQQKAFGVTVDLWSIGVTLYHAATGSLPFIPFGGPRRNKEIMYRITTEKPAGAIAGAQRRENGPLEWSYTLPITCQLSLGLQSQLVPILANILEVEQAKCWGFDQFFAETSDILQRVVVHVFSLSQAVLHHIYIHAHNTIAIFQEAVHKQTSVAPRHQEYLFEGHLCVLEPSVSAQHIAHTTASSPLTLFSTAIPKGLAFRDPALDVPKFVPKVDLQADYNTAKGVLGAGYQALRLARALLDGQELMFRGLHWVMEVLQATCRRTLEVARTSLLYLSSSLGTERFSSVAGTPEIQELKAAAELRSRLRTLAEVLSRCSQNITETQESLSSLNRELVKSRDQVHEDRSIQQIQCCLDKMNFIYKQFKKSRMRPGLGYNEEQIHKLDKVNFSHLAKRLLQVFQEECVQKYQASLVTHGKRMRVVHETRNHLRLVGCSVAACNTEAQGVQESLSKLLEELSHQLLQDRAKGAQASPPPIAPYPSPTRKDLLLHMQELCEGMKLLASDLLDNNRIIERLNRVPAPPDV
Assay: In-vitro IKKε kinase assay ([γ33]ATP filter-plate)
Format: biochemical
Conditions: text bins; read-out: IC50 for inhibition of the kinase activity of IKKε
pIC50: −log10 of the molar value.
pIC50 overview

Below, each entry is followed by its recorded pIC50 result.
chem_smiles=COCCNC(=O)Nc1cccc(Nc2nccc(-c3ccc(OC4CCOCC4)c(C#N)c3)n2)c1 measured_value="> 8.30"
chem_smiles=COc1ccc(COc2ccc(-c3ccnc(Nc4ccc(N5CCOCC5)cc4)n3)cc2C#N)cc1 measured_value="6.30 to 7.30"
chem_smiles=COc1cc(Nc2nccc(-c3ccc(OC4CCOCC4)c(C#N)c3)n2)ccc1N1CCOCC1 measured_value="> 8.30"

Here is another molecule to look at.
What measured pIC50 goes with "COc1ccc(-c2ccnc(Nc3ccc(NC(=O)NC4CCCC4)cc3)n2)cc1C#N" ?
6.30 to 7.30
